# Tested on: EKVX
# experimentNotes: NCI tumour cell line growth inhibition, 48 h
Active and inactive are the calls of the source. No stated cut-off is given here; in the data, active = GI50 up to about 1.1 µM and inactive = higher.
assayEndpoint: GI50

compound | GI50
O=C1NC(=O)C(c2c[nH]c3cc(Br)ccc23)=C1c1cnc[nH]1 | 23.4 µM (inactive)
N#CCN1CCCCCc2ccccc21 | > 100 µM (inactive)
O=C1CC(S(=O)(=O)O)C=C1Nc1cccc(Cl)c1 (stereo not drawn) | > 100 µM (inactive)

Form field GI50, entry `COC(=O)/C=C1/N=C(N(C)/N=C/c2ccccc2)NC1=O` : > 100 µM (inactive)

# compound `Cn1c2ccccc2n2c3ncccc3c(=S)c(C#N)c12` ; its GI50 = > 100 µM (inactive)

Consider O=C1CCCC1C(O)(C(F)(F)Cl)C(F)(F)Cl (stereo not drawn) . Its measured GI50 is > 10 µM (inactive)

Quick note, GI50 for NC(CP(=O)(O)O)C(=O)O (stereo not drawn) landed at > 100 µM (inactive)

---

# System: NCI-H460
# experimentNotes: NCI tumour cell line growth inhibition, 48 h
Calls of active or inactive are those of the source. Rule as the data show it: active = GI50 up to about 1.1 µM and inactive = higher.
# GI50 annotations

Example entries begin here.
compound | assayedSystem | GI50
CCc1ccc2nc(-c3ccc(O)cc3)sc2c1 | NCI-H460 | 21.1 µM (inactive)
NC1=NN(c2ccccc2)C(=O)C1C(=O)C(=O)Nc1cccc(C(F)(F)F)c1 (stereo unspecified) | NCI-H460 | > 100 µM (inactive)
O=C(Cc1ccc(Cl)c(Cl)c1)NCCCN1CCN(CCCN2CCCCC2)CC1 | NCI-H460 | 16.6 µM (inactive)
O=c1c2ccccc2nc2n1C(c1ccc([N+](=O)[O-])cc1)C2(c1ccccc1)c1ccccc1 (stereo unspecified) | NCI-H460 | > 100 µM (inactive)
N#CC1(C#N)C(c2ccccc2)NC23CCCCC2C1(C#N)C(=O)N3 (stereo unspecified) | NCI-H460 | > 100 µM (inactive)
CC1(C)OC2C(COC(c3ccccc3)(c3ccccc3)c3ccccc3)OC(c3c[nH]c4c(N)ncnc34)C2O1 (stereo unspecified) | NCI-H460 | 3.33 µM (inactive)
CC(=O)OCC1OC(N2C(c3ccccc3)=CC(c3ccco3)C(C#N)=C2S)C(OC(C)=O)C(OC(C)=O)C1OC(C)=O (stereo unspecified) | NCI-H460 | 14.7 µM (inactive)
CC1=CC(=O)c2cccc(O)c2C1=O | NCI-H460 | 5.75 µM (inactive)
CC1Cn2c(nc3ccccc32)NC1=O (stereo unspecified) | NCI-H460 | > 100 µM (inactive)
O=c1c2c3c(sc2nc2n1N=CN(c1ccc(F)cc1)C2)CCCC3 | NCI-H460 | > 100 µM (inactive)

Let's switch to this compound now.
Note to self: GI50 recorded for O=C1CC(S(=O)(=O)O)C=C1Nc1cccc(Cl)c1 (stereo unspecified) was > 100 µM (inactive)

---

# Test system: MDA-N
# experimentNotes: NCI tumour cell line growth inhibition, 48 h
The source made the active and inactive calls. No stated cut-off is given here; in the data, active = GI50 up to about 1.1 µM and inactive = higher.
Please reply with one of these outcomes: active, inactive

Sample answers from the record:
molecule | assignedLabel
Nc1ccc(S(=O)(=O)c2ccc(NCN3C(=O)NC(=O)C(=O)C3=O)cc2)cc1 | inactive
O=C(/C=C/c1ccccc1)Oc1ccc(C(=O)/C=C/c2ccccc2)cc1 | inactive
O=C(OCCC12CC3CC(CC(C3)C1)C2)c1ccc(NCc2cc(O)ccc2O)cc1 | inactive
NNC(=O)CS(=O)(=O)Nc1ncccn1 | inactive

-- ask For `Cc1cc(C)c2c(O)cc(-c3cccc4ccccc34)nc2n1` , which call appears in the assay record?
-- reply active

-- ask Hi, sorry to bother you, what did the test record for `O=[N+]([O-])C(C(Cl)=C(Cl)Cl)=C(N(Cc1ccccc1)Cc1ccccc1)N(Cc1ccccc1)Cc1ccccc1` ?
-- reply inactive

-- ask Please state the recorded outcome for this molecule: `CCn1c(-c2ccc(OC(C)=O)cc2)c(C)c2cc(OC(C)=O)ccc21`
-- reply inactive

-- ask For `N#CCCN(CCC#N)c1ccc(/C=C2\N=C(c3ccccc3)N(c3ccc(C(=O)O)cc3)C2=O)cc1` , which call appears in the assay record?
-- reply inactive

-- ask Name the outcome recorded for COC(=O)C(=O)C(C(=O)OC)C(=O)C(=O)Nc1ccccc1C(N)=O (stereo unspecified) in the assay.
-- reply inactive

-- ask Per the assay record, what outcome was assigned to `COc1c(NC(C)=O)c2ccccc2c2ccccc12` ?
-- reply inactive

-- ask Dear all, I need the recorded test outcome for COc1ccc(C(=O)C(CC2C(=O)CC(C)(C)C(C(=O)C(=O)Nc3c(C)cccc3C)C2=O)c2ccc(OC)cc2)cc1 (stereo unspecified) , thank you.
-- reply inactive

-- ask # lookup: test call for CC(C)[C@@H]1CC[C@@H](C)C[C@H]1OC(=O)/C=C1\C(C(=O)O[C@@H]2C[C@H](C)CC[C@H]2C(C)C)[C@H]2C=C[C@@H]1O2 (stereo partly specified)
-- reply inactive

-- ask Dear colleague, could you share the recorded outcome for `CCOC(=O)c1c(Cl)nc2ccccc2c1N=[N+]=[N-]` when you have a moment?
-- reply inactive

-- ask Identify the outcome logged in this assay for the molecule shown: `CCOC(=S)SC/C(=N\OC(C)(C)OC)c1ccccc1`
-- reply inactive

---

# System: SK-MEL-5
# experimentNotes: NCI tumour cell line growth inhibition, 48 h
Calls of active or inactive are those of the source. Cut-off read from the data, not from the text of the source: active = GI50 up to about 1.1 µM and inactive = higher.
Below, each of the compounds is paired with its reported GI50 value.

compound | assayEndpoint | endpointValue
C[N+](C)(C)CC1CCC(C[N+](C)(C)C)C1=NO (stereo unspecified) | GI50 | > 100 µM (inactive)
CSC(SC)=C1C(=O)N(c2ccccc2)N=C1C | GI50 | 10.3 µM (inactive)
O=C(CP(=O)(O)O)c1cccs1 | GI50 | > 100 µM (inactive)

Reported GI50 for `COC(=O)[C@@H]1CN(C(=O)c2ccccc2)C(=O)N1C(=O)OCc1ccccc1` was > 100 µM (inactive)

Consider `CCn1c2ccc(O)c(C(=O)OC)c2c2cc3ccccc3c(O)c21` . Its measured GI50 is 14.2 µM (inactive)

GI50 reading for CC[As](CC)SCC1OC(OC(C)=O)C(OC(C)=O)C(OC(C)=O)C1OC(C)=O (stereo unspecified) : 15.1 µM (inactive)

---

Listing: GI50 of selected compounds
# Tested on: HL-60
# experimentNotes: NCI tumour cell line growth inhibition, 48 h
The source made the active and inactive calls. Cut-off read from the data, not from the text of the source: active = GI50 up to about 1.1 µM and inactive = higher.

For orientation, consider the following solved cases.
compound | endpointValue
O=C1NC(O)n2c(=O)[nH]c(=O)n21 (stereo not given) | 71 µM (inactive)
N#CCCN(CCC#N)c1ccc(/C=C2\N=C(c3ccccc3)N(c3ccc(C(=O)O)cc3)C2=O)cc1 | > 10 µM (inactive)
O=c1[nH]c(N/N=C\C(O)C(O)C(O)C(O)CO)nc2ccccc12 (stereo not given) | > 100 µM (inactive)
O=c1[nH]c2ccc(CC(=S)N3CCOCC3)cc2o1 | 89.9 µM (inactive)
CN(CCc1ccc(N)cc1)[C@H]1CCCC[C@H]1N1CCCC1 | > 100 µM (inactive)

Form field GI50, entry `CCn1c(-c2ccc(OC(C)=O)cc2)c(C)c2cc(OC(C)=O)ccc21` : 11 µM (inactive)

compound `CCOC(=O)c1cc2c(C(=O)c3ccc([N+](=O)[O-])cc3)c(C(C)=O)ccc2[nH]1` , GI50 observed: > 100 µM (inactive)

Form field GI50, entry `COc1cc2cc3c4c(cc(OC)c(OC)c4c2cc1OC)CCN3C(=O)OCCN1CCNCC1` : 13.2 µM (inactive)

# compound CCC(CCCC[C@@H]1CC[C@H]2CC(=O)C[C@@H]12)OC (stereo not given in full) ; its GI50 = 49.5 µM (inactive)

Per the record, `Nc1cccc2cc(S(=O)(=O)Nc3ccc(C(=O)O)cc3)ccc12` has GI50 of > 100 µM (inactive)

---

# Test system: HOP-62
# experimentNotes: NCI tumour cell line growth inhibition, 48 h
Active and inactive are the calls of the source. No stated cut-off is given here; in the data, active = GI50 up to about 1.1 µM and inactive = higher.
Classes to choose from: YES for active, NO for inactive

molecule | assayedSystem | assignedLabel
CCn1c(SCC(=O)NNC(=S)Nc2ccc([N+](=O)[O-])cc2)nc2ccccc2c1=O | HOP-62 | NO
COc1ccc2c(c1)CCc1cnn(C3OC(COC(C)=O)C(OC(C)=O)C(OC(C)=O)C3OC(C)=O)c1-2 (stereo unspecified) | HOP-62 | NO
Clc1cccc(Cl)c1C(Nc1nncs1)Nc1nncs1 | HOP-62 | NO
COc1ccc(C2=NOP(c3ccccc3)(c3ccccc3)(c3ccccc3)C2)cc1 | HOP-62 | NO
CCOC(=O)N1CCC2(CC1)C[C@](C)(C(C)=O)C(C)O2 (stereo partly specified) | HOP-62 | NO
NC1=NN(c2ccccc2)C(=O)C1C(=O)C(=O)Nc1cccc(C(F)(F)F)c1 (stereo unspecified) | HOP-62 | NO
CC(=O)Oc1ccc2c(c1)O/C(=C\c1ccc(N(C)C)cc1)C2=O | HOP-62 | NO
C#CCCCOc1ncccn1 | HOP-62 | NO

-- ask What did this assay record as the result for `CCOC(=O)CC(=O)C(=O)NN=C1NCCCN1` ?
-- reply NO

-- ask Short answer needed: outcome of this test for `CC(C)(Oc1ccc2c(=O)cc(-c3ccccc3)oc2c1)C(=O)N1CCN(c2ccccc2)CC1` ?
-- reply NO

-- ask Which outcome was entered for the molecule `COc1cc2cc3c4c(cc(OC)c(OC)c4c2cc1OC)CCN3C(=O)CCC(=O)NCCCN(C)C` in this test?
-- reply NO
